pIC50 values by entry
- System: HCT292 human lung cancer cells
- assaySummary: HCT292 cell viability (crystal violet / ATPlite)
- Assay type: cell-based
- conditionsUsed: Homo sapiens; Table 4; assay not given, cited among cellular activity Tables 3-9 (HCT292)
pIC50: −log10 of the molar value.

{"compound": "O=C(CC1S/C(=N/N=C/c2ccc(O)c(O)c2O)NC1=O)Nc1ccc(N2CCCC2)cc1 (stereo not shown)", "pIC50": 6.48}
{"compound": "O=C(Cc1cnc(NC(=O)Nc2cccnc2)s1)Nc1ccc(N2CCCC2)cc1", "pIC50": 4.08}
{"compound": "O=C(CC1S/C(=N/N=C/c2cccnc2)NC1=O)Nc1ccc(N2CCCC2)cc1 (stereo not shown)", "pIC50": 3.94}
{"compound": "CN(C)c1ccc(CCNC(=O)CC2S/C(=N/N=C/c3cccnc3)NC2=O)cc1 (stereo not shown)", "pIC50": 3.00}
